# Tested on: Influenza A virus
# assay: Antiviral activity against Influenza A virus A/PR/8/34 (H1N1) infected in MDCK cells assessed as inhibition of virus-induced cytopathic effect
# Format: functional, organism-based
# measurementContext: A/Puerto Rico/8/1934(H1N1)
assayReadout: log10(EC50) (log10 of the value in µM)
Answers are given as log10 of EC50 in µM.

q: Consider the molecule C1=CC[C@]23CCC[C@@]2(C1)CNC3 tested on Influenza A virus; state its log10(EC50).
a: 1.85

Others:
q: For Influenza A virus, give the measured log10(EC50) of the entry CC1=C(C)C[C@]23CNC[C@@]2(C1)CC(C)=C(C)C3
a: 0.85

q: Recall the reported log10(EC50) of C1=CC2C3C4C5C=CC4C24CNCC54C13 on Influenza A virus and write it down.
a: 1.20

q: Give log10(EC50) for C1=CC[C@]23CC=CC[C@@]2(C1)CNC3 tested on Influenza A virus.
a: 1.58

q: Report log10(EC50) under test system Influenza A virus for CC1CC23CC(C)CC2(C1)CN(C(=N)N)C3 (stereo not drawn) .
a: 0.30

* * *

# assayedTarget: Matrix protein 2 (Influenza A virus) (UniProt P06821)
# Sequence (P06821 whole entry): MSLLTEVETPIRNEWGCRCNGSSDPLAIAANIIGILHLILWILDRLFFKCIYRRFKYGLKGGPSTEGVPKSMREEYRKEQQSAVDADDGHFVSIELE
# assay: Inhibition of influenza A virus wild type M2 proton channel expressed in Xenopus oocytes at 100 uM for 2 mins by two-electrode voltage clamp analysis
# Type: cell-based
Listing: inhibition of selected compounds
Answer with a number only, understood to be in %.

q: Query inhibition for C=C1CC23CC=CCC2(CNC3)C1 (configuration not stated)
a: 14.9

q: Please report inhibition for the following compound: CC1CC23CNCC2(C1)CC(C)C3 (configuration not stated)
a: 58.7

q: Consider the compound C1CC23CCCC2(C1)CNC3 (configuration not stated) . State its measured inhibition.
a: 47.1

q: State, in one line, measured inhibition of CC1CC23CC(C)CC2(C1)CN(C(=N)N)C3 (configuration not stated)
a: 8.8

---
q: Give a short answer stating reported inhibition for C=C1CC23CNCC2(C1)CC(=C)C3 (configuration not stated) .
a: 29.3

q: Return the recorded inhibition value; entry: C=C1CC23CCCC2(CNC3)C1 (configuration not stated)
a: 29.9

q: Read off the recorded inhibition for C1=CC[C@]23CCCC[C@@]2(C1)CNC3
a: 19.1

* * *

# Tested on: Influenza A virus
# assay: Antiviral activity against Influenza A virus A/PR/8/34 (H1N1) infected in MDCK cells assessed as inhibition of virus-induced cytopathic effect
# Format: functional, organism-based
# measurementContext: A/Puerto Rico/8/1934(H1N1)
assayReadout: EC50

q: Identify the reported EC50 for the following entry. C1CC23CCCC2(C1)CNC3 (stereo not drawn)
a: > 100 µM

q: Give the measured EC50 for C=C1CC23CCCC2(CNC3)C1 (stereo not drawn)
a: > 100 µM

# next compound below
q: Return EC50 (reported value) for this compound: N=C(N)N1C[C@@]23CC=CC[C@@]2(CCC3)C1
a: > 100 µM

* * *

# System: Influenza A virus
# assay: Antiviral activity against Influenza A virus A/PR/8/34 (H1N1) infected in MDCK cells assessed as inhibition of virus-induced cytopathic effect
# Assay type: functional, organism-based
# measurementContext: A/Puerto Rico/8/1934(H1N1)
Below, each entry is listed with its recorded EC50.

q: Complete the entry with EC50 for N=C(N)N1CC23CCCC2(CCC3)C1 (stereo not drawn)
a: > 100 µM

Others:
q: Complete the entry with EC50 for C=C1CC23CC(=C)CC2(C1)CN(C(=N)N)C3 (stereo not drawn)
a: > 100 µM

q: Please supply the value of reported EC50 for the item C=C1CC23CNCC2(C1)CC(=C)C3 (stereo not drawn)
a: < 0.8 µM
